Target: dopamine D2 receptor (Rattus norvegicus, UniProt P61169)
Sequence (P61169 whole entry): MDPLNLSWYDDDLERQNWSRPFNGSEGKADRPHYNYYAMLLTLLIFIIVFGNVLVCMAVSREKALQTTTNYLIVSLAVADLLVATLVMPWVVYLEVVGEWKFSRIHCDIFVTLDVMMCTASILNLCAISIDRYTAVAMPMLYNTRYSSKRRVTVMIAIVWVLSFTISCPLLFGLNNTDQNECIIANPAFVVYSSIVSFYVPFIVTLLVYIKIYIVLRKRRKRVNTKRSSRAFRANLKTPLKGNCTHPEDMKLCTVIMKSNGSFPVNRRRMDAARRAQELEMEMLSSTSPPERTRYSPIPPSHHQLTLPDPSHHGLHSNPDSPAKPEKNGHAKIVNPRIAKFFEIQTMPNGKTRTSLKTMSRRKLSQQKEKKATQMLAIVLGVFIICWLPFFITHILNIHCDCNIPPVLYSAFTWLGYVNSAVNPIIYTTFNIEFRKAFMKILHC
Test: Affinity for the dopamine autoreceptor, 3H-quinpirole (D2 Quin.) binding in homogenized rat striatal brain tissue
Set-up: homogenized rat striatal brain tissue; from tissue; host or cells: rat striatal brain tissue (homogenate)
Settings: high-affinity agonist state
readout-kind: IC50 (nM)

Completed entries (count: 3):
S=c1[nH]c2cc(Cl)cc(OCCNCc3cccs3)c2[nH]1 [Example 8]    0.37
S=c1[nH]c2cccc(OCCCNCc3ccccc3)c2[nH]1 [Example 3]    14.9
Sc1nc2c(OCCNCc3ccccc3)cc(Cl)cc2[nH]1 [Example 7]    0.39

1 = S=c1[nH]c2cccc(OCCN3CCc4ccccc4C3)c2[nH]1 [Example 10]
2 = Cc1ccc(CNCCOc2cccc3[nH]c(=S)[nH]c23)cc1 [Example 2]
3 = CC(C)(C)c1ccc(CNCCOc2cccc3[nH]c(=S)[nH]c23)cc1 [Example 5]
4 = S=c1[nH]c2cc(Cl)cc(OCCNCc3ccsc3)c2[nH]1 [Example 9]
Q) Arrange the 4 compounds by rising IC50, starting with the smallest. Put the labels in the requested order and list them out.
A) 4, 2, 3, 1

I = S=c1[nH]c2cccc(OCCNCc3ccc(Cl)cc3)c2[nH]1 [Example 6]
II = S=c1[nH]c2cccc(OCCNCc3ccccc3)c2[nH]1 [Example 1]
Q) Pick one: I or II . Which has the bigger IC50 number? Which one? Tell me its label.
A) II
(II: 0.36 nM, I: 0.21 nM)
